- Assay system: T1, human GIP receptor (human, UniProt P48546 22-466)
- T1 sequence (looked up): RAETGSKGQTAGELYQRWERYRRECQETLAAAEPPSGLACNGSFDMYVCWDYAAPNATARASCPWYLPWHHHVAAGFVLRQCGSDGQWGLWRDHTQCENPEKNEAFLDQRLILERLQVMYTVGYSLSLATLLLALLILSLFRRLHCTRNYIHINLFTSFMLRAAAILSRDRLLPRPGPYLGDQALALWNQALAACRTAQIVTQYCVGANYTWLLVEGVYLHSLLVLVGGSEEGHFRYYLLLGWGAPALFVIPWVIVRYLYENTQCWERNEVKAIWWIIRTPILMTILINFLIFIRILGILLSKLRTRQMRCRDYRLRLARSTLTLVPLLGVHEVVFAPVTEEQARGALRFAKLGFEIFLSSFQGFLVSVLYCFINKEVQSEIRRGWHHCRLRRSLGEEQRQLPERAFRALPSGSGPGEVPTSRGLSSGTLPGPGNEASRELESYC
- Test protocol: cell-based or functional assay
Bridge positions count the residues as written; N and C are the ends. Square brackets hold non-standard residues; d marks the D form. Ends that are not written are not given here. * marks the point of attachment. Acetyl(2-(4-imidazolyl)) = O=C(Cc1c[nH]cn1)*; Aib = CC(C)(N)C(=O)O
Recorded In Vitro Activity Compared to Native Peptide (%) vs. GIP (relative titer from cAMP EC50) for the following binders
Answer with a number only, understood to be in %.

Completed entries (count: 5):
Y[Aib]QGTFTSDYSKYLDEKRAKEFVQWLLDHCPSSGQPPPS (bridge 16-20; not fully specified (bridges); ends not checked) [trigonal agonist of SEQ ID NO: 40] = 5.2
H[Aib]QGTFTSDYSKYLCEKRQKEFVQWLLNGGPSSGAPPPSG (bridge 16-20; not fully specified (bridges)) [trigonal agonist of SEQ ID NO: 7] = 0.2
Y[Aib]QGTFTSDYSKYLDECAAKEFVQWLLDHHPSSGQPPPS (bridge 16-20; not fully specified (bridges)) [trigonal agonist of SEQ ID NO: 19] = 92.9
Y[Aib]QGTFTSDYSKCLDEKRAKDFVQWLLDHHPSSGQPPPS (bridge 16-20; not fully specified (bridges); ends not checked) [trigonal agonist of SEQ ID NO: 25] = 64.4
H[Aib]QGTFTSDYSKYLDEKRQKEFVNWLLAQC (bridge 16-20; not fully specified (bridges)) [trigonal agonist of SEQ ID NO: 17] = 0.8

# In Vitro Activity Compared to Native Peptide (%) vs. GIP (relative titer from cAMP EC50) of H[Aib]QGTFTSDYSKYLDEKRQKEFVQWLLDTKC (bridge 16-20; not fully specified (bridges)) [trigonal agonist of SEQ ID NO: 33] = 0.12

In Vitro Activity Compared to Native Peptide (%) vs. GIP (relative titer from cAMP EC50) recorded for this binder, [Acetyl(2-(4-imidazolyl))][Aib]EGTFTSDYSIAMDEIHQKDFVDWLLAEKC (bridge 16-20; not fully specified (bridges)) [trigonal agonist of SEQ ID NO: 38] , is 0.3

Entry H[Aib]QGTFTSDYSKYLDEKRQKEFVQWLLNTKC (bridge 16-20; not fully specified (bridges)) [trigonal agonist of SEQ ID NO: 18] — recorded In Vitro Activity Compared to Native Peptide (%) vs. GIP (relative titer from cAMP EC50) = 0.2
